APPLIED_CONDITIONS: human gut metagenome, 24 h, 2 µM; note: call rule not given here
EXPERIMENTAL_READOUT: Bacterial Biotransformation

| COMPOUND | Bacterial Biotransformation |
| --- | --- |
| Nc1ccc(/N=N/c2ccccc2)c(N)n1 | Compound metabolized |
| CC(C)NCC(O)c1ccc(NS(C)(=O)=O)cc1 (stereo not drawn) | Compound NOT metabolized |
| CC(C)NCC(O)COc1ccc(CCOCC2CC2)cc1 (stereo not drawn) | Compound NOT metabolized |
| CN1C(=O)CC(C)(c2ccccc2)C1=O (stereo not drawn) [METHSUXIMIDE] | Compound NOT metabolized |
| Cc1nc2n(c(=O)c1CCN1CCC(c3noc4cc(F)ccc34)CC1)CCCC2O (stereo not drawn) | Compound metabolized |
| NS(=O)(=O)c1cc2c(cc1Cl)N=C(CSCc1ccccc1)NS2(=O)=O [BENZTHIAZIDE] | Compound NOT metabolized |
| Cc1cc2c(cc1S(N)(=O)=O)S(=O)(=O)CCC2 | Compound NOT metabolized |
| CC(C)N(CCC(C(N)=O)(c1ccccc1)c1ccccn1)C(C)C.O=P(O)(O)O (stereo not drawn) [DISOPYRAMIDE PHOSPHATE] | Compound NOT metabolized |
| CS(=O)(=O)O.O.O.O.O=C1Cc2cc(CCN3CCN(c4nsc5ccccc45)CC3)c(Cl)cc2N1 [ZIPRASIDONE MESYLATE] | Compound NOT metabolized |
| CC(=O)OCC(=O)[C@@]1(O)[C@@H](C)C[C@H]2[C@@H]3CCC4=CC(=O)C=C[C@]4(C)[C@@]3(F)[C@@H](O)C[C@@]21C [BETAMETHASONE ACETATE] | Compound metabolized |

# lookup: Bacterial Biotransformation of Cc1ccc(S(=O)(=O)NC(=O)NN2CCCCCC2)cc1 [TOLAZAMIDE]
Compound metabolized

Could you do the same for C[C@@H]1CC[C@H]2[C@@H](C)C(=O)O[C@@H]3O[C@@]4(C)CC[C@@H]1[C@]32OO4 , please?
Compound metabolized

Could you do the same for COc1cc2nc(N3CCN(C(=O)c4ccco4)CC3)nc(N)c2cc1OC , please?
Compound NOT metabolized

Could you do the same for CCN(CC)CCOC(=O)C(Cc1cccc2ccccc12)CC1CCCO1.O=C(O)C(=O)O (stereo not drawn) [NAFRONYL OXALATE] , please?
Compound metabolized
